tested on: HIV-1 K103N+Y181C (RES056); test: microbe, parasite or virus in culture; format: cell-based; settings: Human immunodeficiency virus 1, MT4, read-out: EC50 RES056
observation.type: EC50 (nM)
Output spec: scalar in nM, unitless text.

Examples from the recorded data:
Cc1cc(C#N)cc(C)c1Oc1nc(NC2CCN(Cc3cccc(C(N)=O)c3)CC2)nc2ncsc12 [SZ9] :: 559
Cc1cc(C#N)cc(C)c1Oc1nc(NC2CCN(Cc3ccc(S(C)(=O)=O)cc3)CC2)nc2ncsc12 [SZ6] :: 27.4
Cc1cc(C#N)cc(C)c1Oc1nc(NC2CCN(Cc3ccncc3)CC2)nc2scnc12 [TZ4] :: 26.8
Cc1cc(C#N)cc(C)c1Oc1nc(NC2CCN(Cc3ccc([N+](=O)[O-])cc3)CC2)nc2scnc12 [TZ5] :: 126
Cc1cc(C#N)cc(C)c1Oc1nc(NC2CCN(Cc3ccncc3)CC2)nc2ncsc12 [SZ7] :: 24.7
Cc1cc(C#N)cc(C)c1Oc1nc(NC2CCN(Cc3ccc(S(N)(=O)=O)cc3)CC2)nc2ncsc12 [SZ1] :: 26.1
Cc1cc(C#N)cc(C)c1Oc1nc(Nc2ccc(C#N)cc2)nc(N)c1Br [ETR, Etravirine, reference compound] :: 45.4
CNS(=O)(=O)c1ccc(CN2CCC(Nc3nc(Oc4c(C)cc(C#N)cc4C)c4scnc4n3)CC2)cc1 [SZ2] :: 19.4
Cc1cc(C#N)cc(C)c1Oc1nc(NC2CCN(Cc3ccc(S(=O)(=O)NC4CC4)cc3)CC2)nc2ncsc12 [SZ3] :: 41.3
Cc1cc(C#N)cc(C)c1Oc1nc(NC2CCN(Cc3ccc([N+](=O)[O-])cc3)CC2)nc2ncsc12 [SZ8] :: 129

Cc1cc(C#N)cc(C)c1Oc1nc(NC2CCN(Cc3cccc(C(N)=O)c3)CC2)nc2scnc12 [TZ6] has a reported EC50 of 222

Cc1cc(C#N)cc(C)c1Oc1nc(NC2CCN(Cc3ccc(S(=O)(=O)N4CCOCC4)cc3)CC2)nc2ncsc12 [SZ4] has a reported EC50 of 94.4
